Source of measurements: patent US9045415B2

Molecular target: recombinant EWS-FLI1 (Homo sapiens, UniProt Q01543+Q01844)
Assay: Surface plasmon resonance (Biacore) binding to EWS-FLI1
Settings: SPR, EWS-FLI1 immobilized on CM5 chip; read-out: KD of binding to EWS-FLI1
Procedure: Antp is conjugated to the amino terminal of all peptides used in these studies. Recombinant EWS-FLI1 (MW 55 kDa) was covalently linked to a CM5 chip at a density of 1200 RU, and E9RP (MW 4 kDa) was evaluated for binding. The E9RP analyte concentrations ranged from 0.03-30 μM, and all are shown in duplicate. E9RP bound to EWS-FLI1 with a KD of 4.0 μM. An assay that will identify whether a peptide can disrupt RHA from interacting with EWS-FLI1 was developed. […]
READOUT TYPE: Kd
// unit must come after the numeric part

// query Kd value for entry COc1ccc(C(=O)CC2(O)C(=O)Nc3c(Cl)ccc(Cl)c32)cc1 (stereo not shown)
9.48 µM

----------
Target: recombinant EWS-FLI1 (Homo sapiens, UniProt Q01543+Q01844)
Sequence (Q01543 1-452): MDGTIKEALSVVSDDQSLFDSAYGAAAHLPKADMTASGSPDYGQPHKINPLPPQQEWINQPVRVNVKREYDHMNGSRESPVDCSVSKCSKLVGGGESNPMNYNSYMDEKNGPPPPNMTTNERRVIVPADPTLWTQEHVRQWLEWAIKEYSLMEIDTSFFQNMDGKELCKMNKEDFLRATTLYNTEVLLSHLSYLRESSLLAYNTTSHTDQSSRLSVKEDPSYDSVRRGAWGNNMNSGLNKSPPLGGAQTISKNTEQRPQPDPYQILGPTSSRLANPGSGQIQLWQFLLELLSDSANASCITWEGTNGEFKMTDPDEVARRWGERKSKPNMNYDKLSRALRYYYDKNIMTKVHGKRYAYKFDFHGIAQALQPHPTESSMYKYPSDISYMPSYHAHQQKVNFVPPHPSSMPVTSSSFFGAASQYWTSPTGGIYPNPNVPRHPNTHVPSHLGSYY
Sequence (Q01844 1-656): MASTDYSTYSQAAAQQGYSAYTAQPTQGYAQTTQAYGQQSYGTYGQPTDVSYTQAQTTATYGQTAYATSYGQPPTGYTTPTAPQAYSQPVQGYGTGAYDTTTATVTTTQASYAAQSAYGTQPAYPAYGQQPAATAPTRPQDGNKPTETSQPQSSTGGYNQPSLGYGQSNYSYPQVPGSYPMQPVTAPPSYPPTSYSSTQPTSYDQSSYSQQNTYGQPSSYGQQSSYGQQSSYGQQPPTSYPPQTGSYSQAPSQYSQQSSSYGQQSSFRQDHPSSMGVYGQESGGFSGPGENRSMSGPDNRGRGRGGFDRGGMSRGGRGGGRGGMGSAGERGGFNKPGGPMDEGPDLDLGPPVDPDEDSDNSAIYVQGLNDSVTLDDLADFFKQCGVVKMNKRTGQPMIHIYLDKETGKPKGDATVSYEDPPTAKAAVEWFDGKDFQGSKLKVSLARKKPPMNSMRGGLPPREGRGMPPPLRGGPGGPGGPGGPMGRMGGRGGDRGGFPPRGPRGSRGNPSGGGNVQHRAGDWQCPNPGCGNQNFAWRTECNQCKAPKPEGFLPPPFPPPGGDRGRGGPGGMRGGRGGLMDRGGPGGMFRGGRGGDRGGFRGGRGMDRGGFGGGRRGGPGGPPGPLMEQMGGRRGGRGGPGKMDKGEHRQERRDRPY
Test: Surface plasmon resonance (Biacore) binding to EWS-FLI1
Settings: FIG. 23 experiment; read-out: KD
READOUT TYPE: Kd (µM)
// note: answer is a bare numeric in µM

// query Kd value for entry O=C(CC1(O)C(=O)Nc2c(Cl)ccc(Cl)c21)c1ccc(O)cc1 (stereo not shown)
6.82
